System: human primary hepatic stellate cells (hHSC)
Test: TGFβ1-induced hHSC activation, gene expression by quantitative PCR
Format: cell-based
Conditions: 10 μM, TGFβ1 1 ng/ml, 24 hours
measured.property: Inhibition of the TGFβ1-induced hHSC activation: αSMA (% ***)
Reply with just the number (in % ***).

| smiles.string | readout.units | reported.result |
| --- | --- | --- |
| Cc1cc(C=CC(=O)c2ccc(SC(F)(F)F)cc2)cc(C)c1OC(C)(C)C(=O)O | % *** | −57 |
| CSc1ccc(C(=O)C=Cc2cc(C(C)C)c(OCC(=O)O)c(C(C)C)c2)cc1 | % *** | −97 |
| CCc1cc(C=CC(=O)c2ccc(C(C)C)cc2)cc(CC)c1OC(C)(C)C(=O)O | % *** | −87 |

Q. Find the measured Inhibition of the TGFβ1-induced hHSC activation: αSMA of Cc1cc(C=CC(=O)c2ccc(Cl)cc2)cc(C)c1OC(C)(C)C(=O)O and report it.
A. −30

Q. Find the measured Inhibition of the TGFβ1-induced hHSC activation: αSMA of CCCCCCOc1ccc(C(=O)C=Cc2cc(C)c(OC(C)(C)C(=O)O)c(C)c2)cc1 and report it.
A. −71

---

Let's look at some compounds and their measured Inhibition of the TGFβ1-induced hHSC activation: αSMA.
Test system: human primary hepatic stellate cells (hHSC)
Test: TGFβ1-induced hHSC activation, gene expression by quantitative PCR
Format: cell-based
Conditions: 10 μM, TGFβ1 1 ng/ml, 24 hours
Reply with just the number (in % ***).

Consider the worked cases shown below.
| smiles.string | reported.result |
| --- | --- |
| Cc1cc(C=CC(=O)c2ccc(OCCC3CCCCC3)cc2)cc(C)c1OC(C)(C)C(=O)O | −92 |
| Cc1cc(C=CC(=O)c2ccc(Oc3ccccc3)cc2)cc(C)c1OC(C)(C)C(=O)O | −49 |
| COc1ccc(C(=O)C=Cc2cc(C)c(OC(C)(C)C(=O)O)c(C)c2)cc1 | −55 |

We now examine a further compound.
Q. Find the measured Inhibition of the TGFβ1-induced hHSC activation: αSMA of CCCCCCSc1ccc(C(=O)C=Cc2cc(C)c(OC(C)(C)C(=O)O)c(C)c2)cc1 and report it.
A. −64
